- Test system: MCF7
- experiment-notes: cells
- Format: functional, cell-based
- experimental-conditions: Homo sapiens, MCF7, 72 h
readout-kind: IC50 (µM)
Number only, in µM; omit the unit.

MCF7 assay, molecule O=C(CCCCCCC(=O)Nc1ccc(C2=C(c3ccc(O)cc3)C3CC(S(=O)(=O)Oc4cccc5ccccc45)C2O3)cc1)NO (racemic) , recorded IC50 = 13.4

MCF7 assay, molecule COC(=O)CCCCCCC(=O)Nc1ccc(OS(=O)(=O)C2CC3OC2C(c2ccc(O)cc2)=C3c2ccc(O)cc2)cc1 (stereo not drawn) , recorded IC50 = 8.1

MCF7 assay, molecule Cc1ccccc1OS(=O)(=O)C1CC2OC1C(c1ccc(NC(=O)CCCCCCC(=O)O)cc1)=C2c1ccc(O)cc1 (racemic) , recorded IC50 = 7.9

---

Provide the reported Efficacy of each item.
- target-or-system: Estrogen receptor (Homo sapiens)
- experiment-notes: Antagonist activity at ER-alpha (unknown origin) transfected in HEK293T cells assessed as inhibition of transcriptional activity after 24 hrs by luciferase reporter gene assay relative to 17-beta estradiol
- Assay type: cell-based
- experimental-conditions: HEK-293T
Number only, in %; omit the unit.

Kindly note the recorded Efficacy for O=C(CCCCCCC(=O)Nc1ccc(OS(=O)(=O)C2CC3OC2C(c2ccc(O)cc2)=C3c2ccc(O)cc2)cc1)NO (stereo not drawn) , which is 104

Kindly note the recorded Efficacy for Cc1cccc(C)c1OS(=O)(=O)C1CC2OC1C(c1ccc(NC(=O)CCCCCCC(=O)O)cc1)=C2c1ccc(O)cc1 (racemic) , which is 127

Kindly note the recorded Efficacy for Cc1ccc(OS(=O)(=O)C2CC3OC2C(c2ccc(NC(=O)CCCCCCC(=O)NO)cc2)=C3c2ccc(O)cc2)cc1 (racemic) , which is 116

---

Provide the reported IC50 of each item.
- target-or-system: Estrogen receptor (Homo sapiens, UniProt P03372)
- Sequence (P03372 whole entry): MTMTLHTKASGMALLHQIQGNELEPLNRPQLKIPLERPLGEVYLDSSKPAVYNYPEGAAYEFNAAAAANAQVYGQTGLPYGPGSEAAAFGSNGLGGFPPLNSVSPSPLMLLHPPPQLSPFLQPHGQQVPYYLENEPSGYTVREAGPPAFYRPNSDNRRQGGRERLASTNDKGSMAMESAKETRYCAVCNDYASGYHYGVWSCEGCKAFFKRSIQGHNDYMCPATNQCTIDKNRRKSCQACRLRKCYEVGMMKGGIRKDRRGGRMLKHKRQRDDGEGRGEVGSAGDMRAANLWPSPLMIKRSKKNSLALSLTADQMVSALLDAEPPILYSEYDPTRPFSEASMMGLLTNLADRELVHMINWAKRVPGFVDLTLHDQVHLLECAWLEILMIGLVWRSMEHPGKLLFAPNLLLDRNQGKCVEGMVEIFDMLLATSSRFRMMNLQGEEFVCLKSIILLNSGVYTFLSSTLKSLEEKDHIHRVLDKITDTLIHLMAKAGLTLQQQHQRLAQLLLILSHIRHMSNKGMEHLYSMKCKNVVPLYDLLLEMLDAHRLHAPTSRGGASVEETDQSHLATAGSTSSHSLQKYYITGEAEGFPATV
- experiment-notes: Antagonist activity at ER-alpha (unknown origin) transfected in HEK293T cells assessed as inhibition of transcriptional activity after 24 hrs by luciferase reporter gene assay
Number only, in nM; omit the unit.

Kindly note the recorded IC50 for O=C(O)CCCCCCC(=O)Nc1ccc(C2=C(c3ccc(O)cc3)C3CC(S(=O)(=O)Oc4ccc(C(F)(F)F)cc4)C2O3)cc1 (racemic) , which is 790

Kindly note the recorded IC50 for COC(=O)CCCCCCC(=O)Nc1ccc(OS(=O)(=O)C2CC3OC2C(c2ccc(O)cc2)=C3c2ccc(O)cc2)cc1 (configuration not stated) , which is 10800

Kindly note the recorded IC50 for O=C(O)CCCCCCC(=O)Nc1ccc(C2=C(c3ccc(O)cc3)C3CC(S(=O)(=O)Oc4ccccc4O)C2O3)cc1 (racemic) , which is 140

Kindly note the recorded IC50 for O=C(O)CCCCCCC(=O)Nc1ccc(C2=C(c3ccc(O)cc3)C3CC(S(=O)(=O)Oc4ccccc4C(F)(F)F)C2O3)cc1 (racemic) , which is 640

Kindly note the recorded IC50 for O=C(CCCCCCC(=O)Nc1ccc(C2=C(c3ccc(O)cc3)C3CC(S(=O)(=O)Oc4ccc5ccccc5c4)C2O3)cc1)NO (configuration not stated) , which is 160

Kindly note the recorded IC50 for Cc1ccccc1OS(=O)(=O)C1CC2OC1C(c1ccc(NC(=O)CCCCCCC(=O)O)cc1)=C2c1ccc(O)cc1 (racemic) , which is 460

Kindly note the recorded IC50 for O=C(O)CCCCCCC(=O)Nc1ccc(OS(=O)(=O)C2CC3OC2C(c2ccc(O)cc2)=C3c2ccc(O)cc2)cc1 (configuration not stated) , which is 50
